measurement.type: melting point

Example entries and their recorded answers appear below.
O=C(c1ccc(Cl)cc1)C1CCN(S(=O)(=O)N2CCCC[C@@H]2C(=O)NO)CC1 | 84.4 to 86.4 °C
CC(NS(=O)(=O)N1CCc2c([nH]c3ccccc23)C1)C(=O)[O-].[Na+] (stereo not shown) | 209 to 211 °C (dec.)
CC(C)[C@H](C(=O)NO)N(Cc1ccccc1)S(=O)(=O)N1CCCCC1 | 80.6 to 85.7 °C
C[C@@H](NS(=O)(=O)N1CC=C(c2ccc(Cl)cc2)CC1)C(=O)NO | 90.7 to 93 °C
Cc1cc(C2=CCN(S(=O)(=O)N3CCN(C(=O)OCc4ccccc4)CC3C(=O)NO)CC2)ccc1F (racemic) | 67 to 70 °C
O=C(NO)C1(NS(=O)(=O)N2CCN(c3ccc(Cl)cc3)CC2)CCOCC1 | 192.5 to 192.7 °C

Req: Query melting point for "O=C(NO)[C@H](CSCc1ccccc1)NS(=O)(=O)N1CCN(c2ccc(Cl)cn2)CC1"
Resp: 86 to 86.7 °C

Req: Query melting point for O=C(NO)C1CCCCN1S(=O)(=O)N1CCC(c2c[nH]c3cc(Cl)ccc23)CC1 (racemic)
Resp: 143 to 151 °C

Req: Query melting point for "CC(C)[C@@H](NS(=O)(=O)N1CCC(Oc2cccc(Cl)n2)CC1)C(=O)NO"
Resp: 81 to 96 °C

Req: Query melting point for "C[C@@H](NS(=O)(=O)N1CCC(Oc2ccc(Cl)cc2)CC1)C(=O)NO"
Resp: 93 to 94 °C

Req: Query melting point for "O=C(NO)C1(NS(=O)(=O)N2CCC(Oc3ccccc3)CC2)CCCC1"
Resp: 124.5 to 125.5 °C

Req: Query melting point for "O=C(NO)[C@H](NS(=O)(=O)N1CCC(Oc2ccc(Cl)cn2)CC1)C1CCCCC1"
Resp: 171.1 to 171.4 °C
